run.parameters: PAMPA, 10 µM, pH 7.4
Positions of bridges follow the written chain, without caps; N, C: chain ends. Non-standard residues stand in square brackets, D forms with d. Residues, ends and D or L forms follow the SMILES beside them. Cha = N[C@@H](CC1CCCCC1)C(=O)O; NMeC = CN[C@@H](CS)C(=O)O; NMeA = CN[C@@H](C)C(=O)O; NPrGly = CCCNCC(=O)O
Note to self: use Condition met only for %R_avg readings below 6%; a reading exactly at 6% still gets Condition not met.

Ask: Given the entry CCCN1CC(=O)N[C@@H](CC(C)C)C(=O)N(C)[C@@H](C)C(=O)N[C@@H](CC(C)C)C(=O)N(C)[C@H](C(=O)OCC)CSCC(=O)N[C@@H](CC(C)C)C(=O)N(C)[C@@H](C)C(=O)N[C@@H](CC(C)C)C(=O)N2CCC[C@@H]2C1=O [LA08] ({CH2CO}-L[NMeA]L[dP][NPrGly]L[NMeA]L[NMeC]-OEt; thioether N-9) , would its reported %R_avg be below 6%?
Result: Condition met

Ask: Param item: CCCN1CC(=O)N[C@@H](CC(C)C)C(=O)N2CCC[C@@H]2C(=O)N(C)[C@@H](C)C(=O)N[C@@H](CC(C)C)C(=O)N(C)[C@@H](C)C(=O)N[C@@H](CC(C)C)C(=O)N(C)[C@H](C(=O)OCC)CSCC(=O)N[C@@H](CC(C)C)C1=O [LB08] ({CH2CO}-L[NPrGly]L[dP][NMeA]L[NMeA]L[NMeC]-OEt; thioether N-9)
Result: Condition not met

Ask: Param item: CCCN1CC(=O)N[C@@H](CC2CCCCC2)C(=O)N(C)[C@@H](C)C(=O)N[C@@H](CC(C)C)C(=O)N(C)[C@H](C(=O)OCC)CSCC(=O)N[C@@H](CC(C)C)C(=O)N(C)[C@@H](C)C(=O)N[C@@H](CC(C)C)C(=O)N2CCC[C@@H]2C1=O [LA12] ({CH2CO}-L[NMeA]L[dP][NPrGly][Cha][NMeA]L[NMeC]-OEt; thioether N-9)
Result: Condition not met
